Numbers sourced from FireProtDB (doi:10.1002/prot.340090203).

B1: Tryptophan synthase alpha chain, P0A877 (parent)
chain: MERYESLFAQLKERKEGAFVPFVTLGDPGIEQSLKIIDTLIEAGADALELGIPFSDPLADGPTIQNATLRAFAAGVTPAQCFEMLALIRQKHPTIPIGLLMYANLVFNKGIDEFYAQCEKVGVDSVLVADVPVEESAPFRQAALRHNVAPIFICPPNADDDLLRQIASYGRGYTYLLSRAGVTGAENRAALPLNHLVAKLKEYNAAPPLQGFGISAPDQVKAAIDAGAAGAISGSAIVKIIEQHINEPEKMLAALKVFVQPMKAATRS

variants of: B1; details: Escherichia coli (strain K12); pH 9; Thermal; DSC; Sodium tetraborate 1 mM; reversible: yes; structure 1WQ5; whole UniProt chain shown
reportedEndpoint: unfolding enthalpy (calorimetric) (kcal/mol)
Express the result in kcal/mol but write the number alone.

QUERY: Any idea what unfolding enthalpy (calorimetric) was measured for P57A ?
RESULT: 121

QUERY: Any idea what unfolding enthalpy (calorimetric) was measured for P132G ?
RESULT: 117

QUERY: Any idea what unfolding enthalpy (calorimetric) was measured for P96A ?
RESULT: 113

QUERY: Any idea what unfolding enthalpy (calorimetric) was measured for P207A ?
RESULT: 95

QUERY: Any idea what unfolding enthalpy (calorimetric) was measured for P132A ?
RESULT: 121
